Attribution: patent US20190271705A1

System Tested: EGFR-pY978
Test Method Notes: fluorescence polarization
Measurement Kind: Kd (nM)
State the answer as a number, implicitly in nM.

These recorded examples may help you get a feel for the data.
T8V S10A K15I (designed binder) MKIEEHHHHHHSSGRENLYFQGGAAQPAAPVDSIQAEEWYFGKLGRKDAERQLLSFGNPRGTFLIRESETVKGAYALSIRDWDDMKGDHVKHYIIRKLDNGGYYITTRAQFETLQQLVQHYSERAAGLSSRLVVPSHKGAAA
130
S10A K15L (designed binder) MKIEEHHHHHHSSGRENLYFQGGAAQPAAPVDSIQAEEWYFGKLGRKDAERQLLSFGNPRGTFLIRESETTKGAYALSIRDWDDMKGDHVKHYLIRKLDNGGYYITTRAQFETLQQLVQHYSERAAGLSSRLVVPSHKGAAA
130

(Q) Need Kd, item T8V K15L (designed binder) MKIEEHHHHHHSSGRENLYFQGGAAQPAAPVDSIQAEEWYFGKLGRKDAERQLLSFGNPRGTFLIRESETVKGAYSLSIRDWDDMKGDHVKHYLIRKLDNGGYYITTRAQFETLQQLVQHYSERAAGLSSRLVVPSHKGAAA
(A) 120
